Tested On: Acetylcholinesterase (Homo sapiens) (UniProt P22303)
Sequence (P22303 whole entry, looked up): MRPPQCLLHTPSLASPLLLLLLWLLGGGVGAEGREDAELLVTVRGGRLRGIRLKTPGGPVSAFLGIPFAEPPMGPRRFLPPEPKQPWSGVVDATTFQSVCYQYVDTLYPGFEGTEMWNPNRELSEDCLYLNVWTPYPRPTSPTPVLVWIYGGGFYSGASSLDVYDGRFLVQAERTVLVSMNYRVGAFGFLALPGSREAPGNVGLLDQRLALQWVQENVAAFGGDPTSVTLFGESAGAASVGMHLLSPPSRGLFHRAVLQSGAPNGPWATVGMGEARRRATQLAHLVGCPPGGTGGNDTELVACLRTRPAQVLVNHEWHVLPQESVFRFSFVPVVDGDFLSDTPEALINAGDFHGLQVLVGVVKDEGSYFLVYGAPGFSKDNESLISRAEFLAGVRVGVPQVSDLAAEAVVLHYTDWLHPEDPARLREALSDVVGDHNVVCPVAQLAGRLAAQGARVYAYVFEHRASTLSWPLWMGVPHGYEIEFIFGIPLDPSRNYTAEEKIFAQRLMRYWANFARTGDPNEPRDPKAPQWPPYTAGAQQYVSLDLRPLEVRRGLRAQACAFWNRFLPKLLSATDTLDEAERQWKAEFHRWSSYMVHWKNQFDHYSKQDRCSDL
Measurement Description: Acetylcholinesterase (AChE) small molecule antagonists: enzyme-based qHTS assay (AID 1347397); also: % is scaled to controls: 0 for no effect and ±100 for the full control effect; nearly all actives have a fitted effect of over 55% in size
Test Context: AChE enzyme activity inhibition; series mostly up to 115 µM
Active and inactive are the calls of the source. Calls follow the shape of the full dose curve.
Endpoint Label: outcome

Worked cases, answers included:
Given Smiles | outcome
CSc1cnc(C)cn1 | inactive
O=C(O)c1c(Cl)ccc(Cl)c1Cl | inactive
OCCCc1ccccc1 | inactive
CCOc1ccc2c(c1)C(C)=CC(C)(C)N2 | inactive
N[C@@H](CCC(=O)O)C(=O)O | inactive
CC(C)OC(=O)CCC(=O)OC(C)C | inactive
CCOC(=O)c1cccnc1 | inactive

Could you now look at the following molecule, please?
Observed outcome on Acetylcholinesterase (Homo sapiens) (UniProt P22303), entry `ClC/C=C\CCl` , equals inactive

###

Tested On: Acetylcholinesterase (Homo sapiens)
Measurement Description: Acetylcholinesterase (AChE) small molecule antagonists: fluorescence cell-based qHTS assay (AID 1347398); also: % is scaled to controls: 0 for no effect and ±100 for the full control effect; nearly all actives have a fitted effect of over 50% in size
Test Context: SH-SY5Y cells; series mostly up to 115 µM
Records with an inconclusive call do not appear. Active and inactive are the calls of the source. The call rests on the fitted dose curve.
Recorded activity change, negative = inhibition, one value per entry.

Worked cases, answers included:
Compound | Tested On | Endpoint Result
CCCCCCCCCCCCCCCCI | Acetylcholinesterase (Homo sapiens) | 3.93% [at 23.8 µM] (inactive)
Cn1ccc2cc3c(cc21)CCN3C(=O)Nc1cccnc1 | Acetylcholinesterase (Homo sapiens) | -28.9% [at 23.8 µM] (inactive)
c1ccc2sc(SSc3nc4ccccc4s3)nc2c1 | Acetylcholinesterase (Homo sapiens) | 3.45% [at 23.8 µM] (inactive)
C[N+]1(CC2COC(c3ccccc3)(c3ccccc3)O2)CCCCC1 (stereo not given) | Acetylcholinesterase (Homo sapiens) | -6.49% [at 23.8 µM] (inactive)
C[C@@H]1CN(c2c(F)c(N)c3c(=O)c(C(=O)O)cn(C4CC4)c3c2F)C[C@H](C)N1 | Acetylcholinesterase (Homo sapiens) | -0.604% [at 23.8 µM] (inactive)
NC(N)=NCCC[C@H](N)C(=O)O | Acetylcholinesterase (Homo sapiens) | 6.4% [at 10.5 µM] (inactive)

Entry under test: `C[C@@H]1CC[C@@]2(OC1)O[C@H]1C[C@H]3[C@@H]4CC[C@H]5C[C@@H](O)CC[C@]5(C)[C@H]4CC(=O)[C@]3(C)[C@H]1[C@@H]2C` . Its activity change, negative = inhibition was -1.2% [at 10.5 µM] (inactive)

Entry under test: `CN1CCN(c2c(F)cc3c(=O)c(C(=O)O)cn4c3c2OCN4C)CC1` . Its activity change, negative = inhibition was 5.01% [at 23.8 µM] (inactive)

Entry under test: `Cc1cc(C)c(N=Nc2c(O)c(S(=O)(=O)O)cc3cc(S(=O)(=O)O)ccc23)cc1C` . Its activity change, negative = inhibition was -0.662% [at 10.5 µM] (inactive)

Entry under test: CCC(Cl)CC(Cl)C(Cl)C(Cl)C(Cl)C(C)Cl (stereo not given) . Its activity change, negative = inhibition was 0.856% [at 23.8 µM] (inactive)

###

Tested On: Thyrotropin-releasing hormone receptor (Homo sapiens)
Measurement Description: qHTS assay to identify small molecule agonists of the thyrotropin-releasing hormone receptor (TRHR) signaling pathway (AID 1346891);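 also: HEK293 cells expressing TRHR with calcium dye readout; % is scaled to controls: 0 for no effect and ±100 for the full control effect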
Test Context: TRHR-HEK293 calcium fluorescence, agonist mode; series mostly up to 57.6 µM
Calls of active or inactive are those of the source. Calls follow the shape of the full dose curve.
Endpoint Label: activation

Worked cases, answers included:
Given Smiles | activation
COc1cc(OC)c(OC)cc1C=O | inactive
Clc1ccccc1-c1ccccc1Cl | inactive
Cc1ccc2nc3sc(=O)sc3nc2c1 | -0.107% [at 11.8 µM] (inactive)
Cc1cc(C(C)(C)c2ccc(O)c(C)c2)ccc1O | inactive
CNC(=O)Oc1cc(C)c(SC)c(C)c1 | inactive

Observed activation on Thyrotropin-releasing hormone receptor (Homo sapiens), entry `COc1ccc(C(c2ccc(OC)cc2)C(Cl)(Cl)Cl)cc1` , equals inactive

Observed activation on Thyrotropin-releasing hormone receptor (Homo sapiens), entry `CC(c1ccccc1)(c1ccc(O)cc1)c1ccc(O)cc1` , equals inactive

Observed activation on Thyrotropin-releasing hormone receptor (Homo sapiens), entry `O=C(Nc1ccccc1-c1ccc(Cl)cc1)c1cccnc1Cl` , equals inactive

Observed activation on Thyrotropin-releasing hormone receptor (Homo sapiens), entry `Cc1cc(C)c(C(=O)P(=O)(c2ccccc2)c2ccccc2)c(C)c1` , equals inactive

Observed activation on Thyrotropin-releasing hormone receptor (Homo sapiens), entry `CCN(CC)C(=O)Cl` , equals inactive

###

Measurement Description: qHTS assay for small molecule disruptors of the mitochondrial membrane potential (AID 720635); also: potency is read from the fitted curve at half-maximal effect
Test Context: HepG2 mitochondrial membrane potential, Mito-MPS dye ratio; series mostly up to 83.2 µM
Records with an inconclusive call do not appear. The source made the active and inactive calls. Calls come from the whole dose curve; as a rule, active = well fitted inhibition curve with a large enough effect in the signal ratio in the repeat runs; inconclusive = weak or mixed curves, or effect the other way; inactive = flat fitted curve, though single readings scatter; the % refers to the signal ratio.
Endpoint Label: Potency

Worked cases, answers included:
Compound | Potency
CC[N+](C)(CC)CCOC(=O)C(O)(c1ccccc1)c1ccccc1 | inactive
CNC(=O)Oc1ccccc1C(=O)Nc1ccccc1 | 5.96 µM (active)
C[C@]12CC[C@H](O)C[C@H]1CC[C@@H]1[C@@H]2CC[C@]2(C)[C@@H](c3ccc(=O)oc3)C[C@H]3O[C@]132 | 2.66 µM (active)
c1csc(C2(N3CCCCC3)CCCCC2)c1 | inactive
C[C@]12C[C@H]3S[C@H]3C[C@@H]1CC[C@@H]1[C@@H]2CC[C@]2(C)[C@@H](O)CC[C@@H]12 | 11.4 µM (active)

Entry under test: COC(COC(N)=O)C1=C(N2CC2)C(=O)C(C)=C(N2CC2)C1=O (stereo not drawn) . Its Potency was inactive

Entry under test: NC(=O)CN1CC(O)CC1=O (stereo not drawn) . Its Potency was inactive

Entry under test: `O=C1CCO1` . Its Potency was inactive

###

Tested On: Acetylcholinesterase (Homo sapiens)
Measurement Description: Acetylcholinesterase (AChE) small molecule antagonists: enzyme-based qHTS assay with human liver microsomes (AID 1347399); also: % is scaled to controls: 0 for no effect and ±100 for the full control effect; nearly all actives have a fitted effect of over 60% in size
Test Context: qHTS inhibition; series mostly up to 115 µM
The source made the active and inactive calls. Calls follow the shape of the full dose curve.
Endpoint Label: outcome

Worked cases, answers included:
Compound | Endpoint Result
O=C(O)c1ccc([N+](=O)[O-])cc1 | inactive
O=C1c2ccccc2C(=O)C1c1ccc2ccccc2n1 | inactive
O=P(c1ccccc1)(c1ccccc1)c1ccccc1 | inactive
CC(=O)OC(C)c1ccccc1 (configuration not stated) | inactive
Cc1nc2ccc(CN(C)c3ccc(C(=O)N[C@@H](CCC(=O)O)C(=O)O)s3)cc2c(=O)[nH]1 | inactive
O=C(OCc1ccccc1)c1ccc(O)cc1 | inactive

Could you now look at the following compound, please?
Entry under test: `C[C@H]1[C@H]2CC[C@H]3[C@@H]4CC=C5C[C@@H](N(C)C)CC[C@]5(C)[C@H]4CC[C@]23CN1C` . Its outcome was inactive

###

Measurement Description: A CellTox Green Cytotoxicity Assay to monitor cytotoxicity in HEK293 cells - 0 hour (AID 1224869); also: nearly all actives have a fitted effect of over 50% in size; as to Cytotoxicity: % is scaled to controls: 0 for no effect and ±100 for the full control effect
Test Context: CellTox Green fluorescence; series mostly up to 76.8 µM
Active and inactive are the calls of the source. Calls come from the whole dose curve; as a rule, active = well fitted activation curve with a large enough effect in the repeat runs; inconclusive = weak or mixed curves; inactive = flat fitted curve, though single readings scatter.
Field 'call' accepts 1 (yes) for active, 0 (no) for inactive

Compound | Assigned Category
CC1COC(Cn2cncn2)(c2ccc(Oc3ccc(Cl)cc3)cc2Cl)O1 (stereo not drawn) | 0 (no)

Query: recorded result category for `O=C(c1ccccc1)C(Cl)Cl` in this test
0 (no)

Query: recorded result category for `COc1ccc(C(c2ccc(OC)cc2)C(Cl)(Cl)Cl)cc1` in this test
0 (no)

Query: recorded result category for `COc1cc(OC)c(OC)cc1C=O` in this test
0 (no)

Query: recorded result category for `Nc1ccc([N+](=O)[O-])cc1` in this test
0 (no)

Query: recorded result category for Cc1nnc2n1-c1sc(CCc3ccc(CC(C)C)cc3)cc1C(c1ccccc1Cl)=NC2C (stereo not drawn) in this test
0 (no)

Query: recorded result category for c1ccc2c(c1)Sc1ccccc1N2CC1CN2CCC1CC2 (stereo not drawn) in this test
0 (no)

Query: recorded result category for `CO/C=C(/C(=O)OC)c1ccccc1Oc1cc(Oc2ccccc2C#N)ncn1` in this test
0 (no)

Query: recorded result category for `CCN(CC)C(=O)Cl` in this test
0 (no)

Query: recorded result category for `CCOC(=O)C(O)(c1ccc(Cl)cc1)c1ccc(Cl)cc1` in this test
0 (no)

Query: recorded result category for `Oc1c(I)cc(I)cc1I` in this test
0 (no)

Query: recorded result category for `CC(c1ccccc1)(c1ccc(O)cc1)c1ccc(O)cc1` in this test
0 (no)

Query: recorded result category for `O=C(Nc1ccccc1-c1ccc(Cl)cc1)c1cccnc1Cl` in this test
1 (yes)

Query: recorded result category for `Cc1cc(C)c(C(=O)P(=O)(c2ccccc2)c2ccccc2)c(C)c1` in this test
0 (no)

Query: recorded result category for `ClC(Cl)=C(c1ccc(Cl)cc1)c1ccccc1Cl` in this test
0 (no)
